Hello, the source for this data is PubChem BioAssay AID214, in case you need it.

system: B6C3F1 mice, colon carcinoma 38 s.c., T/C; assay: NCI In Vivo Anticancer Drug Screen. Data for tumor model Colon Carcinoma 38 (subcutaneous) in B6C3F1 mice; conditions: endpoint: median tumor weight (est.); dose: 12.5 mg/kg/injection; schedule: Q07DX002 (ip); vehicle: saline with Tween-80; higher = larger tumour
Inconclusive results are not listed.
Recorded metric: T/C

Molecule	T/C
O=C(CCCN1CCC(C(O)c2ccc(F)cc2)CC1)c1ccc(F)cc1 (configuration not stated)	59 % of control
CCCCCCCCCCCCCCCCCC(=O)Nc1ccn(C2OC(CO)C(O)C2O)c(=O)n1 (configuration not stated)	64 % of control
Nc1nc(N)c2c(ccc3c2ccn3Cc2cccc([N+](=O)[O-])c2)n1	85 % of control

The measured T/C associated with NS(=O)(=O)OCCCCCCCOS(N)(=O)=O reads 214 % of control

The measured T/C associated with CC1c2ccccc2CC(CCN(C)C)c2ccccc21 (configuration not stated) reads 164 % of control

The measured T/C associated with O=C(CCCCCCC(=O)ON1C(=O)CCC1=O)ON1C(=O)CCC1=O reads 74 % of control

The measured T/C associated with C[CH2][Sn]([CH2]C)([CH2]C(=O)OC)[CH2]C(=O)OC reads 65 % of control
